System: HLA-A24.02
assay-overview: Class I MHC peptide binding stability (pMHC-I dissociation, 125I-labeled light chain)
Design: species or system human
settings: allele A24.02
Where a SMILES comes first, the peptide text is derived from it.
Form field: Stability (T1/2 (h)) (one value per entry).
Give the value in h but do not write h after it.

{"compound": "CC[C@H](C)[C@H](NC(=O)[C@H](CC(C)C)NC(=O)[C@@H](N)CCC(N)=O)C(=O)N[C@@H](CCSC)C(=O)N[C@@H](CCC(N)=O)C(=O)N[C@@H](CC(C)C)C(=O)N[C@@H](CCSC)C(=O)N1CCC[C@H]1C(=O)N[C@@H](Cc1ccccc1)C(=O)O", "recorded-measurement": 0.4}
{"compound": "CC[C@H](C)[C@H](NC(=O)[C@@H](NC(=O)[C@H](CC(C)C)NC(=O)[C@@H](NC(=O)[C@@H]1CCCN1C(=O)[C@H](CCCNC(=N)N)NC(=O)[C@H](Cc1c[nH]c2ccccc12)NC(=O)[C@H](CC(N)=O)NC(=O)[C@@H](N)CCSC)[C@@H](C)CC)[C@@H](C)O)C(=O)O (H-MNWRPILTI-OH; N-terminus and C-terminus assumed)", "recorded-measurement": 0.2}
{"compound": "CC(C)C[C@H](NC(=O)[C@H](CO)NC(=O)[C@H](CCCCN)NC(=O)[C@H](CC(C)C)NC(=O)[C@@H](NC(=O)[C@H](CO)NC(=O)[C@@H]1CCCN1C(=O)[C@H](CC(C)C)NC(=O)[C@@H](N)Cc1ccccc1)[C@@H](C)O)C(=O)O", "recorded-measurement": 1}

Attention now turns to another entry.
Note to self: Stability (T1/2 (h)) recorded for CC(C)C[C@H](NC(=O)[C@H](CC(C)C)NC(=O)[C@H](CC(C)C)NC(=O)[C@H](CC(=O)O)NC(=O)[C@H](CO)NC(=O)[C@H](CC(C)C)NC(=O)[C@@H]1CCCN1C(=O)[C@@H](NC(=O)[C@@H](N)C(C)C)C(C)C)C(=O)O (H-VVPLSDLLL-OH; N-terminus and C-terminus assumed) was 0.5

----------
measured-on: HLA-A02.01 (Homo sapiens, UniProt P04439, D140Y/D185E/D98H/E176V/E277Q/G131W/G231S/I119V/I121R/I166T/I218V/L300P/L318F/N151K/N90K/P208A/P217A/Q86G/Q94H/R138H/R169H/T345S)
assay-overview: Class I MHC peptide binding affinity (displacement of radiolabeled reference peptide)
settings: allele A02.01; read-out: Observed Affinity (IC50; (nM))
Where a SMILES comes first, the peptide text is derived from it.
endpoint-name: IC50 (nM)
Give the value in nM but do not write nM after it.

{"compound": "CC[C@H](C)[C@H](NC(=O)[C@H](CC(=O)O)NC(=O)[C@H](Cc1ccccc1)NC(=O)[C@H](CC(C)C)NC(=O)[C@@H](NC(=O)[C@H](CCC(=O)O)NC(=O)[C@@H](NC(=O)[C@H](CCSC)NC(=O)[C@@H](N)Cc1c[nH]c2ccccc12)[C@@H](C)O)[C@@H](C)O)C(=O)O (H-WMTETLFDI-OH; N-terminus and C-terminus assumed)", "IC50, nM": 14}
{"compound": "CC[C@H](C)[C@H](NC(=O)[C@H](Cc1ccc(O)cc1)NC(=O)[C@H](CC(C)C)NC(=O)[C@H](CO)NC(=O)[C@H](CC(N)=O)NC(=O)[C@H](CS)NC(=O)[C@H](CCC(=O)O)NC(=O)[C@H](Cc1c[nH]cn1)NC(=O)[C@H](CC(C)C)NC(=O)[C@@H](N)C(C)C)C(=O)O (H-VLHECNSLYI-OH; N-terminus and C-terminus assumed)", "IC50, nM": 10}

Attention now turns to another entry.
Note to self: IC50 recorded for CC(C)C[C@H](NC(=O)[C@H](CCCNC(=N)N)NC(=O)[C@@H](N)C(C)C)C(=O)N[C@@H](CO)C(=O)N[C@@H](CO)C(=O)N[C@@H](CS)C(=O)N[C@H](C(=O)N1CCC[C@H]1C(=O)N[C@H](C(=O)N[C@@H](C)C(=O)O)C(C)C)C(C)C (H-VRLSSCVPVA-OH; N-terminus and C-terminus assumed) was 1210

Values were extracted from patent US20220282217A1.
